Cited source: patent US12173018B2

Below, each entry is listed alongside its reported pEC50.
- Target entity: E. coli PBP2 (Escherichia coli (strain K12))
- Sequence (P0AD65 whole entry): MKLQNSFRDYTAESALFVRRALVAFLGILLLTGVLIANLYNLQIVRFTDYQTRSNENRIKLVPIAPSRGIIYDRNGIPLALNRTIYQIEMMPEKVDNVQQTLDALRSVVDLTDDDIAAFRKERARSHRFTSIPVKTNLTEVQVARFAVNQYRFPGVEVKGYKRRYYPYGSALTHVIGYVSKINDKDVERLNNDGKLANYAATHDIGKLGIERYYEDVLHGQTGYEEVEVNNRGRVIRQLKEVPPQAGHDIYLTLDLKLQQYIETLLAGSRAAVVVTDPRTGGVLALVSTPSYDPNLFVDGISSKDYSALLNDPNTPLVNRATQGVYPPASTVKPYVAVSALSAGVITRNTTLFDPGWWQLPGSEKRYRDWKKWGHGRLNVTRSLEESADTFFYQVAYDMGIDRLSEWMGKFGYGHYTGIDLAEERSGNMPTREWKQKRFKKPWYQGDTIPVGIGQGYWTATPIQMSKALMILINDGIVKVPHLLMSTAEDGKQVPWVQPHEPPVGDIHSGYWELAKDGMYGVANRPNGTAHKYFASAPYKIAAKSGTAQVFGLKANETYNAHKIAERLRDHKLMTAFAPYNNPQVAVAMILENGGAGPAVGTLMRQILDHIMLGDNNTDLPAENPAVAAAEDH
- Assay method text: E. coli PBP2 Bocillin-FL fluorescence polarization competition binding assay
- Recorded conditions: fluorescence polarization competition binding with Bocillin-FL; read-out: E. coli K12 PBP2 Potency (EC50)
- Description: To determine the ability of boronic acid-based test PBP inhibitors to bind Penicillin Binding Proteins (PBPs), Bocillin-FL (fluorescently-labeled penicillin V; ThermoFisher Scientific) was used in a fluorescence polarization (FP) competition binding assay to assess inhibitor binding to PBP2, PBP3 or PBP4 from Escherichia coli. […] Bocillin-FL was added and the FP immediately measured for 60 minutes (90 minutes for PBP2). […]
pEC50: −log10 of the molar value.

Previously resolved entries follow.
1) CCN1CCN(C(=O)NC(C(=O)N[C@H]2Cc3ccc(F)c(C(=O)O)c3OB2O)c2csc(N)n2)C(=O)C1=O (stereo partly shown); < 3.30
2) CCN1CCN(C(=O)NC(C(=O)N[C@H]2Cc3cccc(C(=O)O)c3OB2O)c2cc(O)c(O)cc2F)C(=O)C1=O (stereo partly shown); < 3.30
3) CCN1CCN(C(=O)NC(C(=O)N[C@H]2Cc3cccc(C(=O)O)c3OB2O)c2cccc(O)n2)C(=O)C1=O (stereo partly shown); < 3.30

Looking for the measured pEC50 of CCN1CCN(C(=O)NC(C(=O)N[C@H]2Cc3cc(C)cc(C(=O)O)c3OB2O)c2csc(N)n2)C(=O)C1=O (stereo partly shown) , can you help?
< 3.30

What measured pEC50 goes with CCN1CCN(C(=O)NC(C(=O)N[C@H]2Cc3cccc(C(=O)O)c3OB2O)c2ccc(NS(C)(=O)=O)cn2)C(=O)C1=O (stereo partly shown) ?
3.30 to 4.52

Recorded pEC50 of CCCN1CCN(C(=O)NC(C(=O)N[C@H]2Cc3cccc(C(=O)O)c3OB2O)c2cnc(N)s2)C(=O)C1=O (stereo partly shown) , please.
< 3.30

pEC50 lookup needed for CCN1CCN(C(=O)NC(C(=O)N[C@H]2Cc3cccc(C(=O)O)c3OB2O)c2ccc(O)cc2F)C(=O)C1=O (stereo partly shown) , thanks.
< 3.30

Can you share its pEC50? I mean this compound: CCN1CCN(C(=O)NC(C(=O)N[C@H]2Cc3ccc(F)c(C(=O)O)c3OB2O)c2cccs2)C(=O)C1=O (stereo partly shown)
< 3.30

Suppose we examine the compound CCN1CCN(C(=O)NC(C(=O)N[C@H]2Cc3cccc(C(=O)O)c3OB2O)c2ncc(O)cc2F)C(=O)C1=O (stereo partly shown) ; what pEC50 value has been reported?
3.30 to 4.52

Bench note: what pEC50 did CCN1CCN(C(=O)NC(C(=O)N[C@H]2Cc3cccc(C(=O)O)c3OB2O)c2ccc(S(N)(=O)=O)cc2)C(=O)C1=O (stereo partly shown) show?
< 3.30

Looking for the measured pEC50 of CCN1CCN(C(=O)NC(C(=O)N[C@H]2Cc3cccc(C(=O)O)c3OB2O)c2cnc(O)cn2)C(=O)C1=O (stereo partly shown) , can you help?
< 3.30

Consider the compound shown here: CCN1CCN(C(=O)NC(C(=O)N[C@H]2Cc3cccc(C(=O)O)c3OB2O)c2ncc(O)cc2Cl)C(=O)C1=O (stereo partly shown) What is its recorded pEC50?
< 3.30

Any idea what pEC50 was measured for CCN1CCN(C(=O)NC(C(=O)N[C@H]2Cc3cc(F)cc(C(=O)O)c3OB2O)c2csc(N)n2)C(=O)C1=O (stereo partly shown) ?
< 3.30

---

The compounds listed here are annotated with their MIC.
- Tested on: N. gonorrhoeae WHO F
- Assay method text: Liquid broth MIC, N. gonorrhoeae WHO F
- Assay type: cell-based
- Recorded conditions: Neisseria gonorrhoeae; N. gonorrhoeae WHO F, liquid broth; read-out: Minimum Inhibitory Concentration, N. gonorrhoeae WHO F

1) CS(=O)(=O)NCCN1CCN(C(=O)NC(C(=O)N[C@H]2Cc3cccc(C(=O)O)c3OB2O)c2ccc(O)c(O)c2Cl)C(=O)C1=O (some centres unmarked); 4 to 8 µg/mL
2) O=C(O)c1cccc2c1OB(O)[C@@H](NC(=O)C(NC(=O)N1CCN(CCF)C(=O)C1=O)c1ccc(B(O)O)cc1)C2 (some centres unmarked); < 0.125 µg/mL
3) CCN1C[C@@H](C)N(C(=O)NC(C(=O)N[C@H]2Cc3cccc(C(=O)O)c3OB2O)c2ncc(O)cc2F)C(=O)C1=O (some centres unmarked); 1 to 2 µg/mL
4) CCCN1CCN(C(=O)NC(C(=O)N[C@H]2Cc3ccc(F)c(C(=O)O)c3OB2O)c2ccc(O)c(O)c2Cl)C(=O)C1=O (some centres unmarked); 0.25 to 0.5 µg/mL
5) CCN1CCN(C(=O)N[C@@H](C(=O)N[C@H]2Cc3cccc(C(=O)O)c3OB2O)c2ccc(O)c(O)c2Cl)C(=O)C1=O; 0.25 to 0.5 µg/mL
6) CCN1CCN(C(=O)NC(C(=O)N[C@H]2Cc3ccc(F)c(C(=O)O)c3OB2O)c2ccc(S(N)(=O)=O)cc2)C(=O)C1=O (some centres unmarked); 0.25 to 0.5 µg/mL

Missing value: MIC, N. gonorrhoeae WHO F, entry CCN1CCN(C(=O)NC(C(=O)N[C@H]2Cc3cccc(C(=O)O)c3OB2O)c2ncc(OC(C)=O)cc2F)C(=O)C1=O (some centres unmarked) . Fill in?
< 0.125 µg/mL

Could you share what MIC was measured for CCN1CCN(C(=O)NC(C(=O)N[C@H]2Cc3ccc(F)c(C(=O)O)c3OB2O)c2ncc(O)cc2F)C(=O)C1=O (some centres unmarked) , tested on N. gonorrhoeae WHO F?
< 0.125 µg/mL

// fetch N. gonorrhoeae WHO F MIC for CCN1CCN(C(=O)NC(C(=O)N[C@H]2Cc3ccc(Cl)c(C(=O)O)c3OB2O)c2ccc(O)c(O)c2Cl)C(=O)C1=O (some centres unmarked)
0.25 to 0.5 µg/mL

Query for N. gonorrhoeae WHO F: what MIC does the record show for O=C(O)c1cccc2c1OB(O)[C@@H](NC(=O)C(NC(=O)N1CCN(CCF)C(=O)C1=O)c1ncc(O)cc1F)C2 (some centres unmarked) ?
< 0.125 µg/mL

Request: MIC, test system N. gonorrhoeae WHO F, entry O=C(O)c1cccc2c1OB(O)[C@@H](NC(=O)C(NC(=O)N1CCN(CCF)C(=O)C1=O)c1ccc(S(=O)(=O)NCCO)cc1)C2 (some centres unmarked)
0.25 to 0.5 µg/mL

Entry CCN1CCN(C(=O)NC(C(=O)N[C@H]2Cc3ccc(F)c(C(=O)O)c3OB2O)c2ccc(O)c(O)c2Cl)C(O)C1=O (some centres unmarked) , system N. gonorrhoeae WHO F: what MIC was measured?
4 to 8 µg/mL

Kindly state the measured MIC obtained for O=C(O)c1cccc2c1OB(O)[C@@H](NC(=O)C(NC(=O)N1CCNC1=O)c1ccc(O)c(O)c1Cl)C2 (some centres unmarked) with N. gonorrhoeae WHO F.
< 0.125 µg/mL

# get_value(readout= MIC, system= N. gonorrhoeae WHO F) for CCN1C[C@H](CCN)N(C(=O)NC(C(=O)N[C@H]2Cc3ccc(F)c(C(=O)O)c3OB2O)c2ccc(O)c(O)c2Cl)C(=O)C1=O (some centres unmarked)
4 to 8 µg/mL

---

- Target entity: E. coli PBP3 (Escherichia coli (strain K12))
- Sequence (P0AD68 whole entry): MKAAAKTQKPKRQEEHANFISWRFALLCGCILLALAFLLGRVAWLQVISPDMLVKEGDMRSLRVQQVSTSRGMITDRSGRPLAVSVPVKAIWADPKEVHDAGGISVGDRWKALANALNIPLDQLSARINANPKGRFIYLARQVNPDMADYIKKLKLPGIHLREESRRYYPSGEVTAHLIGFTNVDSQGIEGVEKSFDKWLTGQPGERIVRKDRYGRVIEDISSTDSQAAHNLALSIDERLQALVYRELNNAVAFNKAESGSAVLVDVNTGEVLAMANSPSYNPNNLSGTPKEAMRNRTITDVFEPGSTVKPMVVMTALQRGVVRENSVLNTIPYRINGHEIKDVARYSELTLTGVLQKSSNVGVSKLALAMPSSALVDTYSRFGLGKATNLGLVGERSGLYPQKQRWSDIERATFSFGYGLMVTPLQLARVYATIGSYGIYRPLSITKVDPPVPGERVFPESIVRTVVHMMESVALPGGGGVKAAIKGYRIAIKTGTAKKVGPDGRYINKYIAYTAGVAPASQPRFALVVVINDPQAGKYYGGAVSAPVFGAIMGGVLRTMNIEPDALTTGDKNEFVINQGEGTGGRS
- Assay method text: E. coli PBP3 Bocillin-FL fluorescence polarization competition binding assay
- Recorded conditions: fluorescence polarization competition binding with Bocillin-FL; read-out: E. coli K12 PBP3 Potency
Value type: EC50

The cases that follow already have their EC50 on record.
1. CCN1CCN(C(=O)NC(CNC(C)=O)C(=O)N[C@H]2Cc3cccc(C(=O)O)c3OB2O)C(=O)C1=O (stereo partly shown); > 500 µM
2. CCN1CCN(C(=O)N[C@H](C(=O)N[C@H]2Cc3cccc(C(=O)O)c3OB2O)C2(CO)CC2)C(=O)C1=O; > 500 µM

Need EC50, item CCN1CCN(C(=O)NC(C(=O)N[C@H]2Cc3cccc(C(=O)O)c3OB2O)c2ccc(-c3nnn[nH]3)cc2)C(=O)C1=O (stereo partly shown)
< 30 µM

Value lookup for EC50; key = CCN1CCN(C(=O)NC(C(=O)N[C@H]2Cc3ccc(F)c(C(=O)O)c3OB2O)c2cc(O)c(O)cc2F)C(=O)C1=O (stereo partly shown)
< 30 µM

Using the record for `NCCN1CCN(C(=O)N[C@@H](C(=O)N[C@H]2Cc3cccc(C(=O)O)c3OB2O)c2ncc(O)cc2F)C(=O)C1=O` , report its EC50.
< 30 µM

# query: EC50 of entry CCN1CCN(C(=O)NC(C(=O)N[C@H]2Cc3cccc(C(=O)[O-])c3OB2O)c2ccc[n+](C)c2)C(=O)C1=O (stereo partly shown)
> 500 µM

Query (molecule): `CCN1CCN(C(=O)N[C@@](C)(C(=O)N[C@H]2Cc3cccc(C(=O)O)c3OB2O)c2csc(N)n2)C(=O)C1=O` ; field requested: EC50
> 500 µM
